Taken from PubChem BioAssay (EPA / NIEHS).

- method: ATG_GLI_CIS: Attagene CIS-FACTORIAL HepG2 Assay for human Zinc Finger Protein GLI1 (AID 2282945)
- condition-description: HepG2, Attagene cis-factorial reporter mRNA, GLI element; actives raise or lower the signal
Calls of active or inactive are those of the source. Rule for the calls: active = hit-call score of the fitted dose curve at least 0.9, where 1 is the maximum; inactive = score below 0.9.
Log the outcome using a class from 1 (yes) = active, 0 (no) = inactive

## Task Check the results log: what was the call for C=CC(=C)CC/C=C(\C)CCC=C(C)C ?
## Result 0 (no)

## Task Check the results log: what was the call for Oc1ccc(Cc2ccccc2O)cc1 ?
## Result 0 (no)

## Task Check the results log: what was the call for Oc1cc2ccccc2cc1O ?
## Result 0 (no)

## Task Check the results log: what was the call for CC(C)CCOCCC(C)C ?
## Result 0 (no)

## Task Check the results log: what was the call for O=CC(F)(F)C(F)(F)C(F)(F)C(F)F ?
## Result 0 (no)

## Task Check the results log: what was the call for CCOCCOCC ?
## Result 0 (no)

## Task Check the results log: what was the call for CCC(C)c1nccnc1OC (stereo not given) ?
## Result 0 (no)

## Task Check the results log: what was the call for O=C(O)CCC(F)(F)C(F)(F)C(F)(F)C(F)(F)C(F)(F)C(F)(F)F ?
## Result 0 (no)

## Task Check the results log: what was the call for O=C(Nc1ccc(Cl)c(Cl)c1)c1cc(Cl)cc(Cl)c1O ?
## Result 1 (yes)

## Task Check the results log: what was the call for Cc1ccccc1OCC(=O)O ?
## Result 0 (no)

## Task Check the results log: what was the call for CN(C)CCOC(c1ccccc1)c1ccccc1 ?
## Result 0 (no)

## Task Check the results log: what was the call for CCCCC=O ?
## Result 0 (no)

## Task Check the results log: what was the call for CC(C)[C@@H]1CC[C@@H](C)C[C@H]1O ?
## Result 0 (no)

## Task Check the results log: what was the call for CC=O ?
## Result 0 (no)

## Task Check the results log: what was the call for CCCCCCC(C)(C)C(=O)O ?
## Result 0 (no)
